# Tested on: Plasmodium yoelii nigeriensis
# run_description: Antimalarial activity against multi-drug resistant Plasmodium yoelii nigeriensis infected in swiss mouse model at 96 mg/kg, po administered for 4 days and measured within 6 to 8 days
# Type: functional, organism-based
# condition_description: time 6-8 day
Calls of active or inactive are those of the source. The calls are words filed in the database; no cut-off is given here.
Classes used: 1.0 for active, 0.0 for inactive

molecule	assigned_label
C=C(c1ccc(OC(C)(C)CO)cc1)C1COC2(CCC(Nc3ccc(Br)cc3)CC2)OO1 (stereo unspecified)	0.0
C=C(c1ccc(OC(C)(C)CNc2ccccc2)cc1)C1COC2(OO1)C1CC3CC(C1)CC2C3 (stereo unspecified)	1.0
C=C(c1ccc(OC(C)(C)CO)cc1)C1COC2(CCCC2)OO1 (stereo unspecified)	0.0
C=C(c1ccc(OC(C)(C)CNc2ccc(F)cc2)cc1)C1COC2(OO1)C1CC3CC(C1)CC2C3 (stereo unspecified)	1.0
C=C(c1ccc(OC(C)(C)CO)cc1)C1COC2(CCCCC2)OO1 (stereo unspecified)	0.0
C[C@@H]1CC[C@H]2[C@@H](C)C(=O)O[C@@H]3O[C@@]4(C)CC[C@@H]1[C@]32OO4	0.0
C=C(c1ccc(OC(C)(C)CNc2cc(Cl)cc(Cl)c2)cc1)C1COC2(CCCC2)OO1 (stereo unspecified)	1.0
C=C(c1ccc(OC(C)(C)CO)cc1)C1COC2(OO1)C1CC3CC(C1)CC2C3 (stereo unspecified)	1.0
C=C(c1ccc(OC(C)(C)CNc2ccc(C(F)(F)F)cc2)cc1)C1COC2(CCCC2)OO1 (stereo unspecified)	1.0
C=C(c1ccc(OC(C)(C)CNc2ccc(Br)cc2)cc1)C1COC2(CCCCC2)OO1 (stereo unspecified)	1.0
C=C(c1ccc(OC(C)(C)CO)cc1)C1COC2(CCC(=O)CC2)OO1 (stereo unspecified)	0.0

###

# Activity listing for each entry below
# Test system: Plasmodium yoelii nigeriensis
# run_description: Antimalarial activity against multi-drug resistant Plasmodium yoelii nigeriensis infected in swiss mouse model assessed as suppression of parasitemia at 96 mg/kg, IM administered for 4 days relative to control
# Type: functional
# condition_description: time 4 day
assay_endpoint: Activity (%)

molecule	tested_on	assay_endpoint	result_number
C=C(c1ccc(OC(C)(C)CO)cc1)C1COC2(CCCC2)OO1 (stereo not drawn)	Plasmodium yoelii nigeriensis	Activity	98
C=C(c1ccc(OC(C)(C)CNc2ccc(C)cc2)cc1)C1COC2(CCCCC2)OO1 (stereo not drawn)	Plasmodium yoelii nigeriensis	Activity	99
C=C(c1ccc(OC(C)(C)CNc2ccc(C(F)(F)F)cc2)cc1)C1COC2(CCCC2)OO1 (stereo not drawn)	Plasmodium yoelii nigeriensis	Activity	65
C=C(c1ccc(OC(C)(C)CO)cc1)C1COC2(CCC(Nc3ccc(Br)cc3)CC2)OO1 (stereo not drawn)	Plasmodium yoelii nigeriensis	Activity	100
C=C(c1ccc(OC(C)(C)CO)cc1)C1COC2(CCCCC2)OO1 (stereo not drawn)	Plasmodium yoelii nigeriensis	Activity	100
C=C(c1ccc(OC(C)(C)CNc2ccc(Br)cc2)cc1)C1COC2(CCCCC2)OO1 (stereo not drawn)	Plasmodium yoelii nigeriensis	Activity	100
C=C(c1ccc(OC(C)(C)CO)cc1)C1COC2(CCC(=O)CC2)OO1 (stereo not drawn)	Plasmodium yoelii nigeriensis	Activity	53
C=C(c1ccc(OC(C)(C)CO)cc1)C1COC2(OO1)C1CC3CC(C1)CC2C3 (stereo not drawn)	Plasmodium yoelii nigeriensis	Activity	100
